meta.source: the supplement of paper PMC12764529

Assay: folding stability dG unfold (combined trypsin and chymotrypsin); higher = more stable
Measured attribute: folding stability dG unfold (kcal/mol)
Give just the numeric value; kcal/mol need not be written.

Give its folding stability dG unfold value. Item: SAGGSAGGSAGGSSLASDPTVPPDEPRTVTVLEPEPGGRLRVVTYEETPAGRRPVSALLSAGGSAGGSAGGS [r10_288_JUSTAS] 0.336

What does the data say about its folding stability dG unfold? Entry: SLIPIRPLATSPSGDLLIEVPAEEDLVEEIKKYLKEKFPGYTPVEVKPVESPPLYLVLFSHPSGKKVWLGSA [r9_1164_JUSTAS] 1.24

// folding stability dG unfold lookup, key: SAGGSAGGSPNPKNVKIYLVALDPDKPEVVAEASFNITVDTEEELEAILKELVPLFPGAKVFASAGGSAGGS [r12_1043_TrMRF] 1.13
